FYI, the data here is from paper PMC9916969.

Kindly state pKi for each of the entries shown.
measured_target: eqBChE (Equus caballus)
Construct: human erythrocyte AChE, equine serum BChE, and porcine liver CES were used; purchased Sigma-Aldrich; host or cells: equine serum (tissue-derived)
Sequence (P81908 whole entry): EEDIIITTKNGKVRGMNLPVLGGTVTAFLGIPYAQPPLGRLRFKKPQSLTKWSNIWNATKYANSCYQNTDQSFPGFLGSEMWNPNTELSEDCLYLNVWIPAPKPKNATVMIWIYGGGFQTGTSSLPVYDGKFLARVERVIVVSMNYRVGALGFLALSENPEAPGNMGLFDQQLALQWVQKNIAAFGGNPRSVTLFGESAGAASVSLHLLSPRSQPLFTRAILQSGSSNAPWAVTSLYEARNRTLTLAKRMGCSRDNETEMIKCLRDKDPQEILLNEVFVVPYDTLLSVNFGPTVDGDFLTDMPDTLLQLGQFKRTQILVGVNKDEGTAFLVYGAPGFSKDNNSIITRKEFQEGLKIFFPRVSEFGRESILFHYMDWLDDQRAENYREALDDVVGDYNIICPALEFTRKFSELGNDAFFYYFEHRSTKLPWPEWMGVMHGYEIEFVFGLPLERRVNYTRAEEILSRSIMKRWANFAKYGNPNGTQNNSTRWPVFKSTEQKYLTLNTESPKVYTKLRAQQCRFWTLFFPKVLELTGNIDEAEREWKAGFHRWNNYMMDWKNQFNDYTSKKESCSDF
assay_protocol: Kinetic study of BChE inhibition (Lineweaver-Burk)
Type: biochemical
condition_description: read-out: Ki (competitive inhibition constant), eqBChE
pKi is a log-scale quantity: -log10 of the concentration expressed in molar.

[Q] Return pKi measured with eqBChE (Equus caballus) given this compound: Oc1ccccc1/C=N/CCCCCCCCNc1c2c(nc3ccccc13)CCCC2 [10c]
[A] 8.08

[Q] What value of pKi on eqBChE (Equus caballus) does `COc1ccccc1C(=O)NCCCCCCCCNc1c2c(nc3ccccc13)CCCC2` have?
[A] 7.73

[Q] Reported pKi for eqBChE (Equus caballus), given `COc1cc(F)c(F)cc1C(=O)NCCCCCCCCNc1c2c(nc3ccccc13)CCCC2` ?
[A] 7.75

[Q] Field: pKi (eqBChE (Equus caballus)). Entry: `O=C(NCCCCCCCCNc1c2c(nc3ccccc13)CCCC2)c1cc(F)c(F)cc1O`
[A] 7.76

###

For each record, write down the corresponding inhibition at 100 µM.
measured_target: β-amyloid (1–42) (Aβ42) (Homo sapiens)
Sequence (P05067 672-713 limits assumed): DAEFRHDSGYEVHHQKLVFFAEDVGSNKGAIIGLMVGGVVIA
assay_protocol: Inhibition of Aβ42 self-aggregation (thioflavin T)
Type: biochemical
condition_description: Aβ42 50 µM; compound 100 µM; 24 h, 37 °C; thioflavin T; read-out: Inhibition of Aβ42 Self-Aggregation
Respond with the figure and its unit, in that order.

[Q] What value of inhibition at 100 µM has been reported for the following compound? `O=C(NCCCCCCCCNc1c2c(nc3ccccc13)CCCC2)c1ccccc1O`
[A] 71.9%

[Q] Entry Oc1ccccc1/C=N/CCCCCCNc1c2c(nc3ccccc13)CCCC2 [10b] : reported inhibition at 100 µM = ?
[A] 67.9%

[Q] Give its inhibition at 100 µM value. Item: `O=C(NCCCCNc1c2c(nc3ccccc13)CCCC2)c1cc(F)c(F)cc1O`
[A] 17.4%

[Q] Given `O=C(NCCCCCCNc1c2c(nc3ccccc13)CCCC2)c1cc(F)c(F)cc1O` , state its recorded inhibition at 100 µM.
[A] 24.1%

[Q] Consider the compound shown here: `O=C(NCCCCCCNc1c2c(nc3ccccc13)CCCC2)c1ccccc1O` What is its recorded inhibition at 100 µM?
[A] 41.5%

[Q] Which inhibition at 100 µM is reported for this compound? `COc1cc(F)c(F)cc1C(=O)NCCCCCCCCNc1c2c(nc3ccccc13)CCCC2`
[A] 54.1%

[Q] Requested field: inhibition at 100 µM. Item: `COc1ccccc1C(=O)NCCCCNc1c2c(nc3ccccc13)CCCC2`
[A] 12.3%

[Q] What value of inhibition at 100 µM has been reported for the following compound? `COc1cc(F)c(F)cc1C(=O)NCCCCNc1c2c(nc3ccccc13)CCCC2`
[A] 10.4%

[Q] Recorded inhibition at 100 µM for Oc1ccccc1/C=N/CCCCCCCCNc1c2c(nc3ccccc13)CCCC2 [10c] , please?
[A] 80.1%

[Q] Request the reported inhibition at 100 µM associated with `O=C(NCCCCCCCCNc1c2c(nc3ccccc13)CCCC2)c1cc(F)c(F)cc1O`
[A] 37.2%

###

measured_target: EeAChE PAS (Electrophorus electricus)
Construct: The enzyme was electric eel AChE (EeAChE type VI-S, lyophilized powder, Sigma-Aldrich); purchased Sigma-Aldrich type VI-S; host or cells: electric eel (tissue-derived)
Sequence (O42275 24-633): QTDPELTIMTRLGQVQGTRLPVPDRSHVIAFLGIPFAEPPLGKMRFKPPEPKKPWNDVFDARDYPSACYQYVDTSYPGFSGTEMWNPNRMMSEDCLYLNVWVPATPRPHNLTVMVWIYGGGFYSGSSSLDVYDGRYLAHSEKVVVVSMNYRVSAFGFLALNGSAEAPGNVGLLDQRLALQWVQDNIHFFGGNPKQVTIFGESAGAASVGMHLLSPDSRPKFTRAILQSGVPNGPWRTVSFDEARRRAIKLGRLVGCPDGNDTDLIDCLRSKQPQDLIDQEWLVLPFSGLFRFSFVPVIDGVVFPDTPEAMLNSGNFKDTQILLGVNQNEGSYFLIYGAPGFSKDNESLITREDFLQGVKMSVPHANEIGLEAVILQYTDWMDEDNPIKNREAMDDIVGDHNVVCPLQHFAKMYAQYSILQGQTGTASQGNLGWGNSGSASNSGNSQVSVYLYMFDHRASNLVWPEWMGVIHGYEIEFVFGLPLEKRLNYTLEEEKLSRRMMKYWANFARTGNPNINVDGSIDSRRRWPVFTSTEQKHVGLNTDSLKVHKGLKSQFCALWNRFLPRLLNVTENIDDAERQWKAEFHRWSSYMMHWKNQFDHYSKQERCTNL
Type: binding
condition_description: compound 20 µM; EeAChE 7 µM; propidium iodide 8 µM
Would you kindly list Propidium Displacement from EeAChE PAS for each of these compounds?
Supply the numeric figure in %, leaving out any unit text.

[Q] Quick one: Propidium Displacement from EeAChE PAS for COc1cc(F)c(F)cc1C(=O)NCCCCCCCCNc1c2c(nc3ccccc13)CCCC2 [8c] ?
[A] 15.1

[Q] Query (compound): Oc1ccccc1/C=N/CCCCCCNc1c2c(nc3ccccc13)CCCC2 [10b] ; field requested: Propidium Displacement from EeAChE PAS
[A] 18.2

[Q] Item Oc1ccccc1/C=N/CCCCCCCCNc1c2c(nc3ccccc13)CCCC2 [10c] has what recorded Propidium Displacement from EeAChE PAS?
[A] 19.8

[Q] Query: Propidium Displacement from EeAChE PAS; subject: COc1cc(F)c(F)cc1C(=O)NCCCCNc1c2c(nc3ccccc13)CCCC2 [8a]
[A] 13.2

[Q] Please report the recorded Propidium Displacement from EeAChE PAS for O=C(NCCCCNc1c2c(nc3ccccc13)CCCC2)c1cc(F)c(F)cc1O [7a] .
[A] 10.4

###

measured_target: AChE (Homo sapiens)
Construct: human erythrocyte AChE, equine serum BChE, and porcine liver CES were used
Sequence (P22303 32-617 isoform P22303-2 limits assumed): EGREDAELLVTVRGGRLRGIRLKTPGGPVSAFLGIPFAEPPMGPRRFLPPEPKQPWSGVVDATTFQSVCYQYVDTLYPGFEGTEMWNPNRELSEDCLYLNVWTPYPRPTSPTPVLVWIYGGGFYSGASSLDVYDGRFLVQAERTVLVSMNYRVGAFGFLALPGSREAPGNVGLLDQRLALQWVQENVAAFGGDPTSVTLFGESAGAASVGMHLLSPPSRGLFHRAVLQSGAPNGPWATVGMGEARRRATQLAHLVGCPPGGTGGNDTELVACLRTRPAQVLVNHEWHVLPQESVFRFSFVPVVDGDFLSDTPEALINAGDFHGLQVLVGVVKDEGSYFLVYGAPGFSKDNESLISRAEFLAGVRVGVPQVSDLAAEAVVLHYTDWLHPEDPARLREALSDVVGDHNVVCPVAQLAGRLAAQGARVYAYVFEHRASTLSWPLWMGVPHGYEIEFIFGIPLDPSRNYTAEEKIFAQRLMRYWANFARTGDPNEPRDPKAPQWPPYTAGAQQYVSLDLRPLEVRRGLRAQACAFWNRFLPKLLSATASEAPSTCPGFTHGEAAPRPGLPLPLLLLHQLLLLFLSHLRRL
assay_protocol: Kinetic study of AChE inhibition (Lineweaver-Burk)
condition_description: read-out: Ki (competitive inhibition constant), AChE
Kindly state Ki for each of the entries shown.
Note: state the figure and append the unit.

[Q] State the recorded Ki for this entry: `COc1cc(F)c(F)cc1C(=O)NCCCCCCCCNc1c2c(nc3ccccc13)CCCC2`
[A] 0.0536 µM

[Q] May I ask what Ki has been recorded for Oc1ccccc1/C=N/CCCCCCCCNc1c2c(nc3ccccc13)CCCC2 [10c] ?
[A] 0.0299 µM

[Q] Which value of Ki has been reported for `O=C(NCCCCCCCCNc1c2c(nc3ccccc13)CCCC2)c1cc(F)c(F)cc1O` in the records?
[A] 0.125 µM

[Q] Reported Ki for `COc1ccccc1C(=O)NCCCCCCCCNc1c2c(nc3ccccc13)CCCC2` : what is it?
[A] 0.104 µM

###

measured_target: eqBChE (Equus caballus)
Construct: human erythrocyte AChE, equine serum BChE, and porcine liver CES were used; purchased Sigma-Aldrich; host or cells: equine serum (tissue-derived)
assay_protocol: Kinetic study of BChE inhibition (Lineweaver-Burk)
Assay type: biochemical
condition_description: mixed-type inhibition; mean ± SEM
Description: Similar results were obtained for other tested compounds (Figures S61 and S62). The obtained values of inhibition constants (Ki = competitive component and αKi = non-competitive component) are shown in Table 2. We assessed the mechanisms of AChE and BChE inhibition by performing a thorough analysis of enzyme kinetics. […]
quantity: αKi (non-competitive inhibition constant), eqBChE
Note: a bare number is incomplete; add the unit.

[Q] Dear colleague, I am looking for the recorded αKi (non-competitive inhibition constant), eqBChE of the following compound: O=C(NCCCCCCCCNc1c2c(nc3ccccc13)CCCC2)c1ccccc1O [5c]
[A] 0.0171 ± 0.0013 µM

[Q] Field request: αKi (non-competitive inhibition constant), eqBChE | item: O=C(NCCCCCCCCNc1c2c(nc3ccccc13)CCCC2)c1cc(F)c(F)cc1O [7c]
[A] 0.0243 ± 0.0001 µM

[Q] Suppose we examine the compound Oc1ccccc1/C=N/CCCCCCCCNc1c2c(nc3ccccc13)CCCC2 [10c] ; what αKi (non-competitive inhibition constant), eqBChE value has been reported?
[A] 0.0152 ± 0.0009 µM

[Q] Name the recorded αKi (non-competitive inhibition constant), eqBChE for COc1ccccc1C(=O)NCCCCCCCCNc1c2c(nc3ccccc13)CCCC2 [6c] .
[A] 0.0314 ± 0.0025 µM

[Q] Reported αKi (non-competitive inhibition constant), eqBChE, compound COc1cc(F)c(F)cc1C(=O)NCCCCCCCCNc1c2c(nc3ccccc13)CCCC2 [8c] : ____
[A] 0.0187 ± 0.0013 µM

###

measured_target: human erythrocyte AChE (Homo sapiens, UniProt P22303)
Construct: human erythrocyte AChE, equine serum BChE, and porcine liver CES were used
Sequence (P22303 32-617 isoform P22303-2 limits assumed): as the sequence (P22303 32-617 isoform P22303-2 limits assumed) above
assay_protocol: biochemical
condition_description: mean ± SEM, n = 3, read-out: Inhibitory activity against AChE, IC50
Note to self: IC50 under 200 nM means Y, ties and anything higher get N.

[Q] Bench note: check whether Oc1ccccc1/C=N/CCCCCCNc1c2c(nc3ccccc13)CCCC2 [10b] shows IC50 below 200 nM
[A] Y

[Q] IC50 strictly < 200 nM for this compound? O=C(NCCCCCCNc1c2c(nc3ccccc13)CCCC2)c1cc(F)c(F)cc1O [7b]
[A] N

[Q] Please let me know if COc1ccccc1C(=O)NCCCCCCCCNc1c2c(nc3ccccc13)CCCC2 [6c] shows IC50 below 200 nM.
[A] Y

[Q] # strict comparison: is reported IC50 < 200 nM? input = O=C(NCCCCCCNc1c2c(nc3ccccc13)CCCC2)c1ccccc1O [5b]
[A] N

[Q] Check if IC50 falls below 200 nM for Oc1ccccc1C=NCCCCNc1c2c(nc3ccccc13)CCCC2 [10a] .
[A] N

[Q] Below 200 nM on IC50? Entry O=C(NCCCCNc1c2c(nc3ccccc13)CCCC2)c1cc(F)c(F)cc1O [7a]
[A] N

[Q] IC50 strictly < 200 nM for this compound? COc1ccccc1C(=O)NCCCCNc1c2c(nc3ccccc13)CCCC2 [6a]
[A] N

[Q] Report whether reported IC50 is lower than 200 nM (strictly) for COc1cc(F)c(F)cc1C(=O)NCCCCNc1c2c(nc3ccccc13)CCCC2 [8a]
[A] N

[Q] Given the entry O=C(NCCCCCCCCNc1c2c(nc3ccccc13)CCCC2)c1cc(F)c(F)cc1O [7c] , would its reported IC50 be below 200 nM?
[A] Y

[Q] Check if IC50 falls below 200 nM for COc1cc(F)c(F)cc1C(=O)NCCCCCCCCNc1c2c(nc3ccccc13)CCCC2 [8c] .
[A] Y

[Q] I wonder whether Oc1ccccc1/C=N/CCCCCCCCNc1c2c(nc3ccccc13)CCCC2 [10c] has IC50 below 200 nM. Can you tell?
[A] Y

[Q] # strict comparison: is reported IC50 < 200 nM? input = COc1ccccc1C(=O)NCCCCCCNc1c2c(nc3ccccc13)CCCC2 [6b]
[A] N

[Q] Hello, I'm reviewing records and need to know if IC50 of COc1cc(F)c(F)cc1C(=O)NCCCCCCNc1c2c(nc3ccccc13)CCCC2 [8b] is below 200 nM. Could you check?
[A] N
